# key: entry, value: IC50
# assay target: UniProt P28593
# Sequence (P28593 whole entry): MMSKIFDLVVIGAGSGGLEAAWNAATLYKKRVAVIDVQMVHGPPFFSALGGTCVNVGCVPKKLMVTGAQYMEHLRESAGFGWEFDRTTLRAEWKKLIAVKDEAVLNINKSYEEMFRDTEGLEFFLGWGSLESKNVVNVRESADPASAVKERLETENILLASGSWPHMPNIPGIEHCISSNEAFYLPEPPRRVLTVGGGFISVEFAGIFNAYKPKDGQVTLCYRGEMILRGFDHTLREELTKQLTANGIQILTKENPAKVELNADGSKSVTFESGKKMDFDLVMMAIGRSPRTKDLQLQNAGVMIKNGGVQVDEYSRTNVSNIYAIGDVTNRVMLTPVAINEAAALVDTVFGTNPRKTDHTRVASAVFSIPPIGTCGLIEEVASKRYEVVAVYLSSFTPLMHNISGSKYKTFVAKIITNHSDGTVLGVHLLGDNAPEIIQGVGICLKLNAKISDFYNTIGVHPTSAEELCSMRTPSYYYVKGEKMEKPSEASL
measurement kind: IC50 (µM)

> print(dat)
                                    compound    assay.target  result.operator  readout.number
 1  C[N+]1(Cc2ccccc2)CCC(/N=C/C2C(=O)NC(=O)N(C3CCCCC3)C2=O)CC1 (configuration not stated)  UniProt P28593                =            45.2
 2  O=C(CN1C(=O)C2CC=CCC2C1=O)Nc1ccccc1Sc1ccc(Cl)cc1 (configuration not stated)  UniProt P28593                >             100
 3  CN1CCCC(CC2Oc3ccccc3Sc3ccccc32)C1 (configuration not stated)  UniProt P28593                =            11.5
 4  CN(C)CCCC1Sc2ccccc2Sc2ccccc21 (configuration not stated)  UniProt P28593                =            36.7
 5  O=C(CCN1CCN2CCCCC2C1)N1c2ccccc2Sc2ccc(Cl)cc21 (configuration not stated)  UniProt P28593                =            35.4
 6      CN(CC(=O)Nc1ccccc1Sc1ccccc1)C1CCCCC1  UniProt P28593                =            56.3
 7   O=C(CN1CCCCCC1)N1c2ccccc2Sc2ccc(Cl)cc21  UniProt P28593                =            78.7
 8  C[N+]1(C)CCCC2c3ccccc3Sc3ccc(Cl)cc3C21 (configuration not stated)  UniProt P28593                =            75.3
 9  CCN1CCN(C2Cc3ccccc3Sc3ccc(Cl)cc32)CC1 (configuration not stated)  UniProt P28593                =            29.1
10  O=C(CN1C(=O)NC2(CCCCCC2)C1=O)Nc1ccccc1Sc1ccccc1  UniProt P28593                >             100
11  c1ccc2c(c1)Sc1ccccc1N2CC1CN2CCC1CC2 (configuration not stated) [MEQUITAZINE]  UniProt P28593                =            21.8
12  CC12CN3CC(C)(C1)C[N+](Cc1cccc(Br)c1)(C3)C2  UniProt P28593                >             100

###

# assay target: Trypanothione reductase (Trypanosoma brucei brucei, UniProt P39051)
# Sequence (P39051 whole entry): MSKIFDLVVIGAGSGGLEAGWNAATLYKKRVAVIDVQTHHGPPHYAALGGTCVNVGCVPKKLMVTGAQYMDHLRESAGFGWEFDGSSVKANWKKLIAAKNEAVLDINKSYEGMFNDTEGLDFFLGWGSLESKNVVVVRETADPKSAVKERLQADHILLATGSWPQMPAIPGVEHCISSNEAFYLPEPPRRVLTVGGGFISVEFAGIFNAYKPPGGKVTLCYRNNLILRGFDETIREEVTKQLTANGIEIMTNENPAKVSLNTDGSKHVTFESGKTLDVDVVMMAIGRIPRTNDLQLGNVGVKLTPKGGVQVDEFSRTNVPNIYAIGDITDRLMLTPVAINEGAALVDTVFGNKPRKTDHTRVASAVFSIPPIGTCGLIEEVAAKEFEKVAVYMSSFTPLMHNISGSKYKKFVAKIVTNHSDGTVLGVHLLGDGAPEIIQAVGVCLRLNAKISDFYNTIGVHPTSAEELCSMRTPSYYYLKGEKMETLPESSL
Friendly reminder: IC50 below 50 µM is met, at or above is not met.

> print(dat)
                                    compound  assigned.label
 1  CCN1CCN(C2Cc3ccccc3Sc3ccc(Cl)cc32)CC1 (stereo unspecified)             met
 2  C[N+]1(Cc2ccccc2)CCC(/N=C/C2C(=O)NC(=O)N(C3CCCCC3)C2=O)CC1 (stereo unspecified)         not met
 3  C[N+]1(C)CCCC2c3ccccc3Sc3ccc(Cl)cc3C21 (stereo unspecified)         not met
 4  CN1CCCC(CC2Oc3ccccc3Sc3ccccc32)C1 (stereo unspecified)             met
 5  NC(=O)C1(N2CCCCC2)CCN(CC(=O)Nc2ccccc2Sc2ccccc2)CC1         not met
 6      CN(CC(=O)Nc1ccccc1Sc1ccccc1)C1CCCCC1             met
 7  CN(C)CCCC1Sc2ccccc2Sc2ccccc21 (stereo unspecified)             met
 8  c1ccc2c(c1)Sc1ccccc1N2CC1CN2CCC1CC2 (stereo unspecified) [MEQUITAZINE]         not met
 9  O=C(CCN1CCN2CCCCC2C1)N1c2ccccc2Sc2ccc(Cl)cc21 (stereo unspecified)             met
10  NCCCCC(N)C(=O)Nc1ccc2ccccc2c1 (stereo unspecified)         not met
11   O=C(CN1CCCCCC1)N1c2ccccc2Sc2ccc(Cl)cc21         not met
